- assayed-system: Androgen Receptor (Homo sapiens)
- Construct: endogenous in cells; host or cells: VCaP cells
- Sequence (P10275 whole entry): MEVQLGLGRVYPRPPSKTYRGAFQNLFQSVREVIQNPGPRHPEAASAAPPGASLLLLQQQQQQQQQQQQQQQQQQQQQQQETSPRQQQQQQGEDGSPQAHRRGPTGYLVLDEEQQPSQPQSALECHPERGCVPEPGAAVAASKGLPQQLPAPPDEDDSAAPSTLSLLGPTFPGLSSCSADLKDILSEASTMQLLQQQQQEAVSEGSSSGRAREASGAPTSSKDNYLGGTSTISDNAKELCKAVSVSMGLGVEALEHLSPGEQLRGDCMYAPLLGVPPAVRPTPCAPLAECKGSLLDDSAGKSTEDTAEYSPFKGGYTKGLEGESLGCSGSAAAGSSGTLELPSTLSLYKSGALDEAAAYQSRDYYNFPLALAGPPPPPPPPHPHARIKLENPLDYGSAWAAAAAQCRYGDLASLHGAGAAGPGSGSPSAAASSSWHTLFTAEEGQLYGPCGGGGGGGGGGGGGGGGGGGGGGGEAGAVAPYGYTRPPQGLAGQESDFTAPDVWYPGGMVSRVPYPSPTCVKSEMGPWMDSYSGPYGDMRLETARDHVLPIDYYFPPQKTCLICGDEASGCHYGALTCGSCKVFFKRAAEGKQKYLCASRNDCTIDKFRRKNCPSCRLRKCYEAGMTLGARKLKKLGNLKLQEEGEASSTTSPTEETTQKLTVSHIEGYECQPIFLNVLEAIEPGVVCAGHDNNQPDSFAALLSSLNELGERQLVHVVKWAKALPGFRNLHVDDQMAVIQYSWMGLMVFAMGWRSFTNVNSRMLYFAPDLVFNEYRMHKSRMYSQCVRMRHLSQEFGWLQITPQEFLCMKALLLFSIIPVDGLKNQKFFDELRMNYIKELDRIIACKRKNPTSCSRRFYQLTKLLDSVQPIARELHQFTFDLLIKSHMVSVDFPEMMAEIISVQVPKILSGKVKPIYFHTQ
- assay-procedure: Androgen Receptor ELISA assay (PathScan AR ELISA) in VCaP cells: AR degradation, Dmax and DC50
- Format: cell-based
- condition-description: VCaP, read-out: VCaP Dmax (%)
outcome-measure: Dmax

Cc1ncsc1-c1ccc(CNC(=O)[C@@H]2C[C@@H](O)CN2C(=O)[C@@H](NC(=O)COCCCCOc2ccc(-c3ccc(N4C(=S)N(c5ccc(C#N)c(Cl)c5)C(=O)C4(C)C)c(F)c3)cc2)C(C)(C)C)cc1 [Example 107]: > 71%
Cc1ncsc1-c1ccc(CNC(=O)[C@@H]2C[C@@H](O)CN2C(=O)[C@@H](NC(=O)COCCCCOCCN2CCC(c3ccc(N4C(=S)N(c5ccc(C#N)c(C(F)(F)F)c5)C(=O)C4(C)C)cc3)CC2)C(C)(C)C)cc1 [Example 81]: < 25%

Source: patent US11427548B2
